I'd appreciate it if you could supply normalized growth values for the items below.
assay: chemical genetic growth profiling, strain panel (AID 1159580);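 note: tested at 20 µM; growth read once vehicle control cultures reached saturation at 30 °C; 1 = growth at the plate median or of vehicle wells; lower values mean less growth of the strain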; settings: S. cerevisiae deletion strains, growth OD, locus YBR229C, strain ROT2, stronger effect = lower value
Among all 5,500 compounds or so, about 2,000 (36%) were called active. Roughly 18% stayed inconclusive and do not appear here. The list shows a part of the results.
Output spec: single numeric token, no unit.

Input: Query (molecule): CCc1cccc(C)c1N(C(=O)CCl)C(C)COC (configuration not stated) ; field requested: normalized growth
Output: 1

Input: Query (molecule): CCCCCC(=O)O[C@]1(C(C)=O)CCC2C3CCC4=CC(=O)CC[C@]4(C)C3CC[C@@]21C (some centres not stated) ; field requested: normalized growth
Output: 1.01

Input: Query (molecule): S=C=NCc1ccccc1 ; field requested: normalized growth
Output: 0.0461

Input: Query (molecule): O=C(c1ccccc1)C1CCN(c2ccc(C(F)(F)F)cc2[N+](=O)[O-])CC1 ; field requested: normalized growth
Output: 1.01

Input: Query (molecule): CC(SCc1ccccc1)C(=O)O (configuration not stated) ; field requested: normalized growth
Output: 0.965

Input: Query (molecule): COc1cc(OC)c2c(c1)OC(c1ccccc1)CC2=O (configuration not stated) ; field requested: normalized growth
Output: 0.986

Input: Query (molecule): NC(=O)c1ncn([C@@H]2O[C@H](CO)[C@@H](O)[C@H]2O)c1O ; field requested: normalized growth
Output: 1.01

Source of measurements: PubChem BioAssay AID1159580
